- SYSTEM: P2X purinoceptor 7 (Homo sapiens)
- ASSAY PROCEDURE: Antagonist activity at human P2X7 receptor expressed in HEK293 cells assessed as inhibition of BzATP-induced ethidium ion uptake at 1 uM after 2 hrs
- Assay type: cell-based
MEASURED METRIC: inhibition

(Q) Any idea what inhibition came out for O=C1CN(c2cc(=O)[nH]c(=O)n2Cc2ccc(OS(=O)(=O)c3cccc4cnccc34)cc2)CCN1Cc1ccccc1 on P2X purinoceptor 7 (Homo sapiens)?
(A) 25%

(Q) Any idea what inhibition came out for O=c1cc(N2CCN(c3ccc([N+](=O)[O-])cc3)CC2)n(Cc2ccc(OS(=O)(=O)c3cccc4cnccc34)cc2)c(=O)[nH]1 on P2X purinoceptor 7 (Homo sapiens)?
(A) 30%

(Q) Any idea what inhibition came out for O=c1cc(N2CCNCC2)n(Cc2ccc(OS(=O)(=O)c3cccc4cnccc34)cc2)c(=O)[nH]1 on P2X purinoceptor 7 (Homo sapiens)?
(A) 13%

(Q) Any idea what inhibition came out for CC(C)CC(=O)N1CCN(c2cc(=O)[nH]c(=O)n2Cc2ccc(OS(=O)(=O)c3cccc4cnccc34)cc2)CC1 on P2X purinoceptor 7 (Homo sapiens)?
(A) 24%

(Q) Any idea what inhibition came out for O=C(OCC1c2ccccc2-c2ccccc21)N1CCN(c2cc(=O)[nH]c(=O)n2Cc2ccc(OS(=O)(=O)c3cccc4cnccc34)cc2)CC1 on P2X purinoceptor 7 (Homo sapiens)?
(A) 24%

Others:
(Q) Any idea what inhibition came out for O=c1cc(N2CCN(c3ccccc3)CC2)n(Cc2ccc(OS(=O)(=O)c3cccc4cnccc34)cc2)c(=O)[nH]1 on P2X purinoceptor 7 (Homo sapiens)?
(A) 24%
